Assayed System: cGMP-inhibited 3',5'-cyclic phosphodiesterase 3A (Homo sapiens) (UniProt Q14432)
Sequence (Q14432 whole entry): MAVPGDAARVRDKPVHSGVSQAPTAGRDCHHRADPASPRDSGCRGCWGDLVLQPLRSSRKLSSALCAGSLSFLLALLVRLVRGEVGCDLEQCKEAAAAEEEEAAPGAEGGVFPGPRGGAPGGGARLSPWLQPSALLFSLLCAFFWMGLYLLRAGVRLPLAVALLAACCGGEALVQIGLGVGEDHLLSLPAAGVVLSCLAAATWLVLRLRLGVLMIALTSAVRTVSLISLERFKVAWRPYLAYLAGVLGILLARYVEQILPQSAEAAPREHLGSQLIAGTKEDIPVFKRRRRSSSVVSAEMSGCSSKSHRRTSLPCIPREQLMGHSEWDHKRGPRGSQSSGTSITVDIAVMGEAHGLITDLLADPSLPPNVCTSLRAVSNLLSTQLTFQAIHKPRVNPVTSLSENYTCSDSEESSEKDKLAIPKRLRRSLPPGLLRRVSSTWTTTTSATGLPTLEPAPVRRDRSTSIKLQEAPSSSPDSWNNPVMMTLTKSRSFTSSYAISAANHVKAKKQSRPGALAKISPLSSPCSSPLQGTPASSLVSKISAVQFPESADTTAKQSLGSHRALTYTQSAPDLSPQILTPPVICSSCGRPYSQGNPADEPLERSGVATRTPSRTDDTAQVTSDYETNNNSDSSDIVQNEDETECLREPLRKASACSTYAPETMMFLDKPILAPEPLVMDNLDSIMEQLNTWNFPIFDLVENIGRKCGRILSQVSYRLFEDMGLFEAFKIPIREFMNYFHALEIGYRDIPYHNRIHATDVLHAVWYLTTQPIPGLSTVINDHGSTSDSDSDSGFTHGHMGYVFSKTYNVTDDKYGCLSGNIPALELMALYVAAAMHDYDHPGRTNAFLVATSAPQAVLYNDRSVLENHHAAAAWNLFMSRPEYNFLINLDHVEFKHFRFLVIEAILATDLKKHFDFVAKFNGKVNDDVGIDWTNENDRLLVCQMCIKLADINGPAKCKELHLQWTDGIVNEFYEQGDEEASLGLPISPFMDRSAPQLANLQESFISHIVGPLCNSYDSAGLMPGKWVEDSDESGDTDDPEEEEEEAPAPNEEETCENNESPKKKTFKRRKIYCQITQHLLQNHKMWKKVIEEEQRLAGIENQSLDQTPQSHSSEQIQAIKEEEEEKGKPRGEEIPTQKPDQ
Assay Procedure: Inhibition of PDE3A (unknown origin) at 10 uM relative to control
Label yes when inhibition is at or above 20%; otherwise label no.

Solved cases (4 shown):
1. O=c1nc(N2CCOCC2)oc2c1cc(/C=C/c1ccccc1)c1ccccc12 no
2. O=c1nc(N2CCOCC2)oc2ccc3cc(-c4ccc(Cl)cc4)ccc3c12 no
3. O=c1nc(N2CCOCC2)oc2ccc3cc(-c4ccccc4)ccc3c12 no
4. O=c1nc(N2CCOCC2)oc2c1cc(-c1ccsc1)c1ccccc12 yes

// next entry
Query string: Given COc1ccc(-c2ccc3c(ccc4oc(N5CCOCC5)nc(=O)c43)c2)cc1 , state whether its inhibition is at least 20%.
Result string: no

* * *

Assayed System: Phosphatidylinositol 4,5-bisphosphate 3-kinase catalytic subunit delta isoform (Homo sapiens)
Assay Procedure: Inhibition of p110delta (unknown origin) assessed as decrease in ATP consumption at 10 uM after 60 mins by Kinase-Glo assay relative to control
Outcome Measure: inhibition (%)
Answer with a number only, understood to be in %.

1. O=c1nc(N2CCOCC2)oc2ccc3cc(-c4ccccc4)ccc3c12 -1

Query string: Answer with reported inhibition of O=c1nc(N2CCOCC2)oc2ccc3cc(-c4ccc(Cl)cc4)ccc3c12
Result string: -1

Query string: Answer with reported inhibition of O=c1nc(N2CCOCC2)oc2ccc3ccccc3c12
Result string: 8

Query string: Answer with reported inhibition of O=c1nc(N2CCOCC2)oc2c1cc(-c1cccc3c1sc1ccccc13)c1ccccc12
Result string: 0

Query string: Answer with reported inhibition of O=c1nc(N2CCOCC2)oc2c1cc(-c1cccc3c1oc1ccccc13)c1ccccc12
Result string: 0

* * *

Assayed System: DNA-PK/Ku70/Ku85 (Homo sapiens) (UniProt P78527+P12956+P13010)
Assay Procedure: Inhibition of human DNA-PK/Ku70/Ku85 at 10 uM using EPPLSQEAFADLWKK as substrate by HTRF assay relative to control
Outcome Measure: inhibition (%)
Answer with a number only, understood to be in %.

1) O=c1nc(N2CCOCC2)oc2c1cc(-c1cccs1)c1ccccc12 34

Query string: Answer with reported inhibition of O=c1nc(N2CCOCC2)oc2c1cc(-c1ccsc1)c1ccccc12
Result string: 22

Query string: Answer with reported inhibition of O=c1nc(N2CCOCC2)oc2c1cc(/C=C/c1ccccc1)c1ccccc12
Result string: 5.9

* * *

Assayed System: cGMP-inhibited 3',5'-cyclic phosphodiesterase 3A (Homo sapiens)
Assay Procedure: Inhibition of PDE3A (unknown origin) at 10 uM relative to control
Catalogue of inhibition values
Answer with a number only, understood to be in %.

1. O=c1nc(N2CCOCC2)oc2c(-c3ccccc3)c3ccccc3cc12 32

Query string: Answer with reported inhibition of O=c1nc(N2CCOCC2)oc2ccc3cc(-c4cccc5c4sc4ccccc45)ccc3c12
Result string: 5

Query string: Answer with reported inhibition of O=c1nc(N2CCOCC2)oc2c(-c3ccc(Cl)cc3)c3ccccc3cc12
Result string: 24

Query string: Answer with reported inhibition of O=c1nc(N2CCOCC2)oc2c1cc(-c1cccs1)c1ccccc12
Result string: 32

Query string: Answer with reported inhibition of COc1ccc(-c2c3ccccc3cc3c(=O)nc(N4CCOCC4)oc23)cc1
Result string: 6
